# Measurement Description: yeast display, Sf9 membrane polyspecificity reagent, FACS + sequencing; frameworks hold sequencing errors
Result Type: polyreactivity (PSR sort gate)

Answered cases to consult:
QVQLVESGGGLVQAGGSLRLSCAASGSTYANAMGWYRQAPGKERELVAAITDNGGRTYYADSVKGRFTISRDNEKNNVYLQMNSLKPEDTAVYYCAARSSVWGQVTQVTVSS :: low polyreactivity
QVQLVESGGGLVQAGGSLRLSCAASGFTFPHYAMGWYRQAPGKERELVAVISWSGSSTYYADSVKGRFTISRDNAMNTVYLQMNSLKPEDTAVYYCNTRKLYQVDYDYWGQGTQVTVSS :: high polyreactivity
QVQLVESGGGLVQAGGRLRLSCAASGFTFNWYDMGWYRQAPGKERELVATISTGGGTNYADSVKGRFTITRYNAKNTVYLQMNSLKPEDSAVYYCAADGSAGYLWGYDFEGVYWGQGTQVTVSS :: high polyreactivity
QVQLVESGGGLVQAGGSLRLSCAASGRIFSYYAMGWYRQAPGKERELVAAINWSGGSTYYADSVKGRFTISRDNAKNTVYLQMNSLKPEDTAVYYCAVDWTSAYGTYYYTPYDSWGQGTQVTVSS :: low polyreactivity

Please turn your attention to the following entry.
Req: Which polyreactivity (PSR sort gate) value is on record for QVQLVESVGGLVQAGGSLRLSSAASGRTFRYYTMVWYTQAPGKEREFVAAISSTGGTYYADSVKGRFTISRDNAKNTVYLQMNSLKPEDTAVYYCAATFIQVVVNVQMYDYDYWGQGTQVTVSS ?
Resp: low polyreactivity

====

# Measurement Description: yeast display, Sf9 membrane polyspecificity reagent, FACS + sequencing; frameworks hold sequencing errors
Result Type: polyreactivity (PSR sort gate)

QVQLVESGGGIVQAGGSLRLSCAASGSTLFGDAMGLYRQAPGKERELVAAINRRGSTNYADSVKGRFTISRDNAKNTVYLKMNCLKPEDTAVYYCAAYIYKTYRYYYWGQGTQVTVSS :: high polyreactivity
QVQLVESGGGLVQAGGSLRLSCAASGSILWLNAMGWYRPAPGKERELVADITRGGSTYYADSVKGRFTISRDNAKNTVYLQMNSLKPEDTAVYYCAADAYTGQIPYYYFEHYYWGQGTQVTVSS :: high polyreactivity
QVQLVESGGGLVQAGGSLRLTCAASGNIFGIYTMGWYRQAPGKEREFFAVISLSGTSTYYADSVKGRFTISRDNAKNTVYLQMKSLKPEDTAVYYCNARTPHNKGRRRAYDYWGQATQVTVSS :: high polyreactivity

====

# Measurement Description: yeast display, Sf9 membrane polyspecificity reagent, FACS + sequencing; frameworks hold sequencing errors
Result Type: polyreactivity (PSR sort gate)

QVQLVESGGGLVQAGGSLRLSCAASARTFGVYAMGWYRQAPGKERELVAAISKSDGSTYYADSVKGRFTISRDNAKITVYLQMNSLKPEDTAVYYCATVTLHQRDTQDDFWGQGTQVTVSS :: low polyreactivity
QVQLVESGGGLVQAGGSLRLICAASGITFARNTRGWYRQAPGKERELVAAIDSGGNTYADSVKGRFTISRDNAKNTVYLQMNSLKPEDTAVYYCAVDGGEFSSYGYWGQGTQVTVSS :: low polyreactivity
QVQLVESGGGLVQAGGSLRLSCAASGRIFWYYGMGWYRQAPGKERELVAAIRGGGSTYYADSVKGRFTISRDNAKNTVYLQMNSLKPEETAVYYCAVDWSRFYNRGGDYWGQGTQVTVSS :: high polyreactivity
QVQLVESVRGLVQAGGTLRLSCAPSGGIFWVYAMGWYRQAPGKERELVAAISNSDTSTSYADSVKGRFTISRVNAKNTVYLQMNSLKPEDTAVYSCNADSPSLSGDYWGQGTQVTVSS :: low polyreactivity
QVQLVESGGGLVQAGGSLRLSCADSGFTFILYAMGWYRQAPGKERELVAAITTSGGRTYYADSVKGRFTISRDNAKNTVYLQMNSLKPEDTAVYYCAAKEYYTPYRRGYWGQGTQVTVSS :: high polyreactivity
QVQHVESRGGLLQAGGSLRLSCAASGRTLSFYGMGWYRQPPGKERELVAAISSSGSRTYYADSVKGRFTISRDNAKNTVYLQMNSLKPEHTAVYYCNALRIYHHYEYDYWGQGTQVTVSS :: high polyreactivity
QVQLQERGGGLVQAGGSLRLSCAASGYISHADEKGWYRQAPGKEHELVASISNGGCTNYADSEKGRFTISRDNAKNTLYLQMNSLKSEDTAVYYCAAWTGQVDIHYYWGQGTQVTVSS :: low polyreactivity
QVQLVESGGGLDQAGGSLRLSFAASGFIFRYYTMGWYRQAPGKERELVAVITRGGSTYYADSVKGRFTISRDNAKNTVYLQMNSLKPEDTAVYYCAADRPGTGYSDYDYWGQGTQVTVSS :: high polyreactivity
QVQLVESGGGLVQAGGSLRLSCAASGSTFSGYVMGWYRQAPGKERELVAAISSSGGGSTYYADSVKGRFTISRDNAKNTVYLQMNSLKPEDTAVYYCAARNYRKYDYWGQGTQVTVSS :: high polyreactivity
QVQLVESGGGLVQAGGSLRLSCAASGITFGANAMGWYRQAPGKERELVAHITWSGGDTYYADSVKGRFTISRDNAKNTVYLQMNSLKPEDTAVYYCNALQPGLGSPLGEYDYWGQGTQVTVSS :: low polyreactivity

Could you now look at the following sequence, please?
Req: What value of polyreactivity (PSR sort gate) has been reported for the following sequence? QVQLVESGGGLVQAGGSLRLSCAASGRISVYYAMGWYRQGPGKERELVAAISWRGSTYYADSVKGRFTISRDYAKNTVYIQMNSQKPEDTAVYNSAARSTGYYGRFYYWGQGTQVTVSS
Resp: high polyreactivity
